For each record, write down the corresponding IC50.
# Tested on: recombinant human PDE4B (Homo sapiens (Human))
# Sequence (Q07343 305-736 limits assumed): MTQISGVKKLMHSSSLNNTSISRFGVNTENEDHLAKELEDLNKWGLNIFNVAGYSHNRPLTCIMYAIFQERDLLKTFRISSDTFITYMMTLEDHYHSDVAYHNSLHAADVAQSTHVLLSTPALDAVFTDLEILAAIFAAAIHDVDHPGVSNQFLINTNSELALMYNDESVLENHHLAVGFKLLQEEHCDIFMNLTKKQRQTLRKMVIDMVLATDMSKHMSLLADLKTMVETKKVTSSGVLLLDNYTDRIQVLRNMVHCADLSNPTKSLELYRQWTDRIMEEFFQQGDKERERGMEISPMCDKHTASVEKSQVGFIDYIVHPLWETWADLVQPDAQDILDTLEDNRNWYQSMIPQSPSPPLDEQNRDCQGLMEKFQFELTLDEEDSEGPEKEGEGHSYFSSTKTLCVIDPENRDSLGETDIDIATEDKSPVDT
# Assay details: In vitro inhibitory activity against PDE 4B enzyme (fluorescence polarization)
# Reported conditions: 1 μM cAMP
# Source text: Experimental objective: to determine the AMP/GMP expression based on fluorescence polarization, i.e., to trace binding of AMP/GMP to antibody so as to indicate enzyme activity. […] • 1. […] The measurement range of fluorescence polarization was Ex/Em=620/688. Data analysis: the fluorescence polarization signal was converted to nM based on AMP/GMP standard curve and the percentage enzyme activity relative to DMSO control calculated by Excel. […]
Answers are plain numbers, in nM.

A selection of reference data follows.
INSERT INTO assay_data (cpd_smiles, value_type, unit_symbol, numeric_readout) VALUES
  ('CCOc1cc2c(cc1OC)-c1c/c(=N\c3c(C)cc(C)cc3C)n(CCNC(=O)c3[nH]nnc3N)c(=O)n1CC2', 'IC50', 'nM', 0.44),
  ('CCOc1cc2c(cc1OC)-c1c/c(=N\c3c(C)cc(C)cc3C)n(CCC(=O)Nc3cnn[nH]3)c(=O)n1CC2', 'IC50', 'nM', 2.1),
  ('CCOc1cc2c(cc1OC)-c1c/c(=N\c3c(C)cc(C)cc3C)n(CCNC(=O)c3ccn[nH]3)c(=O)n1CCO2', 'IC50', 'nM', 0.18);

Reported IC50 for CCOc1cc2c(cc1OC)-c1c/c(=N\c3c(C)cc(C)cc3C)n(CCNC(=O)c3ncon3)c(=O)n1CC2 : what is it?
0.47
